assay-setup: in toluene, 315.85 K
quantity-kind: solubility (mole fraction)
Respond numerically, and do not add a unit to the figure.

Quick one: solubility (mole fraction) for `COc1cc([N+](=O)[O-])c(OC)cc1Cl` ? 0.0393

* * *

assay-setup: in o-xylene, 331.35 K
quantity-kind: solubility (mole fraction)

Quick one: solubility (mole fraction) for `COc1cc([N+](=O)[O-])c(OC)cc1Cl` ? 0.0624

* * *

assay-setup: in methanol, 288.85 K
quantity-kind: solubility (mole fraction)
Respond numerically, and do not add a unit to the figure.

Quick one: solubility (mole fraction) for `COc1cc([N+](=O)[O-])c(OC)cc1Cl` ? 0.000716
